B1: TMEM106C (parent)
chain: FTGRDSITCLTCQGTGYIPTEQVN

variants of: B1; test: protein stability index of a GFP-peptide fusion (GPS, HEK-293T) (PSI 1-6); higher = more stable; details: c terminus: a fixed tail appended;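 note: lentivirally expressed fusions sorted by FACS into six bins by GFP to DsRed ratio, PSI derived from sequencing read proportions per bin multiplied by bin number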

{"columns": ["mutation.notation", "protein stability index"],
 "data": [
  ["G16S", 2.05],
  ["C9V", 1.9],
  ["G3P", 2.76],
  ["T20H", 1.92],
  ["D5H", 2.82],
  ["E21L", 2.03],
  ["N24L", 1.91],
  ["P19E", 2.02],
  ["L10P", 4.51],
  ["Q13Y", 2.38],
  ["G16M", 2.8]
]}
